Just for reference, paper PMC11548477 is where these values come from.

tested on: cathepsin B- and L-like activity (Z-FR-AMC cleavage) in crude protein extract from barley leaves; assay: Z-FR-AMC cleavage by crude protein extract from barley leaves; format: biochemical, Hordeum vulgare; settings: pH 5.5; week-4 leaf extract; read-out: IC50, Z-FR-AMC cleavage
test.readout: IC50 (µM)
Numbers only, in µM.

1. O=C(NCc1ccccc1)C(Cc1ccccc1)NC(=O)C1OC1C(=O)NCCc1ccc(O)cc1 (stereo not drawn); 0.12
2. CC(C)C[C@H](NC(=O)[C@H]1O[C@@H]1C(=O)O)C(=O)NCCCCNC(=N)N; 0.0123

# ---- query molecule ----
**Query** Any idea what its IC50 is? The molecule is `CCCNC(=O)[C@H]1O[C@@H]1C(=O)N[C@H](C(=O)N1CCC[C@H]1C(=O)O)[C@@H](C)CC`
**Result** 11.3

====

target: aminopeptidase B and cathepsin H-like activity (R-AMC cleavage) in crude protein extract from barley leaves; assay: R-AMC cleavage by crude protein extract from barley leaves; format: biochemical, Hordeum vulgare; conditions: pH not given; week-3 leaf extract
test.readout: IC50 (µM)
Give bare numbers, in µM.

**Query** Any idea what its IC50 is? The compound is c1cnc2c(c1)ccc1cccnc12 [1,10-Phenanthroline]
**Result** 560
